Would you kindly list Ratio for each of these compounds?
assay: Ratio of drug level in cerebrospinal fluid to fraction unbound level in plasma of Sprague-Dawley rat at 10 mg/kg, po; assay type: ADME, organism-based; design: dose 10 mg/kg, route oral; settings: in vivo
Answers are plain numbers.

record.smiles | Ratio
Cc1ccnc(C2(C#N)CCN(Cc3cc(C(=O)O)c(=O)n4ccccc34)CC2)c1 | 0.25
Cc1ccccc1C1(C#N)CCN(Cc2cc(C(=O)O)c(=O)n3ccccc23)CC1 | 0.5
N#CC1(c2ccccn2)CCN(Cc2cc(C(=O)O)c(=O)n3ccccc23)CC1 | 0.3

Now, please, on to the next compound.
Given the entry "N#CC1(c2ccccc2)CCN(Cc2cc(C(=O)O)c(=O)n3ccccc23)CC1" , report its measured Ratio.
0.25

Sourced from ChEMBL document CHEMBL1799933
